Could you please report measured T/C for the items listed next?
Tested on: L1210 leukemia ip in BDF1 mice, survival T/C
Test: NCI In Vivo Anticancer Drug Screen. Data for tumor model L1210 Leukemia (intraperitoneal) in B6D2F1 (BDF1) mice
Conditions: endpoint: mean survival time; dose: 100.0 mg/kg/injection; schedule: Q01DX001 (ip); vehicle: Klucel (hydroxypropylcellulose) (HPC); higher = longer survival
Toxic doses and inconclusive results are not listed.

Lookup result for O=S(N=C(C(F)(F)F)C(F)(F)F)C(F)(F)F (configuration not stated) ; measured T/C: 106 % of control

Lookup result for Cc1cc(NC(=O)Nc2cc([N+](=O)[O-])ccc2Cl)no1 ; measured T/C: 89 % of control

Lookup result for CCOC(=O)/C(C#N)=C\c1ccc(N(CC)CC)cc1 ; measured T/C: 91 % of control

Lookup result for CCCCCCCCCCCCCCC/C(CC)=N/Nc1ccc([N+](=O)[O-])cc1[N+](=O)[O-] ; measured T/C: 111 % of control

Lookup result for O=C(COc1ccc(Cl)c(Cl)c1)N(Cc1ccccc1)Cc1cccnc1 ; measured T/C: 99 % of control

Lookup result for CC1=CC(=O)C2COc3c2c1cc1c(C)cc(=O)n(C)c31 (configuration not stated) ; measured T/C: 95 % of control

Lookup result for CC(CP(c1ccccc1)c1ccccc1)(CP(c1ccccc1)c1ccccc1)CP(c1ccccc1)c1ccccc1 ; measured T/C: 97 % of control
